CONDITION DETAILS: in n-propyl acetate, 298.15 K
MEASURED METRIC: solubility (mole fraction)

{"columns": ["COMPOUND", "QUANTITATIVE READOUT"],
 "data": [
  ["CCCCN(CCCC)CC(O)c1cc(Cl)cc2c1-c1ccc(Cl)cc1/C2=C/c1ccc(Cl)cc1 (stereo unspecified)", 0.00841]
]}

---

CONDITION DETAILS: in methanol, 323.15 K

{"columns": ["COMPOUND", "solubility (mole fraction)"],
 "data": [
  ["CCCCN(CCCC)CC(O)c1cc(Cl)cc2c1-c1ccc(Cl)cc1/C2=C/c1ccc(Cl)cc1 (stereo unspecified)", 0.000136]
]}
